Origin of the recorded values: PubChem BioAssay AID1963426

Tested on: 186277-243-T-J2-PDC complex spheroid growth, % test/control
Experiment: Anticancer human tumor 186277-243-T-J2-PDC patient-derived colon adenocarcinoma cell line growth inhibition [Asc]
Details: second compound 0.01 µM; first compound 0.316 µM; stronger effect = lower value
From the text: Multicellular complex tumor spheroid response to apoptosis pathway targeting inhibitors Alrizomadlin, Pelcitoclax, and Dasminapant in combination with a variety of drugs and investigational agents in selected tumor cell lines […] Compounds. […] If the clinical Cmax for an agent had not been determined, the highest concentration tested was 10 microM. […]
MEASURE_NAME: viability, T/C (%)
Answers are plain numbers, in %.

COc1c(OCCCN2CCOCC2)ccc2c3n(c(=NC(=O)c4cnc(N)nc4)nc12)CCN3 + CNC(C)C(=O)NC1CN(S(=O)(=O)c2cccc(S(=O)(=O)N3CCC4CCC(C(=O)NC(c5ccccc5)c5ccccc5)N4C(=O)C(NC(=O)C(C)NC)C3)c2)CCC2CCC(C(=O)NC(c3ccccc3)c3ccccc3)N2C1=O : 25.2
CCN1CCN(Cc2ccc(Nc3ncc(F)c(-c4cc(F)c5nc(C)n(C(C)C)c5c4)n3)nc2)CC1 + CNC(C)C(=O)NC1CN(S(=O)(=O)c2cccc(S(=O)(=O)N3CCC4CCC(C(=O)NC(c5ccccc5)c5ccccc5)N4C(=O)C(NC(=O)C(C)NC)C3)c2)CCC2CCC(C(=O)NC(c3ccccc3)c3ccccc3)N2C1=O : 123
O=C(c1cc(Cc2n[nH]c(=O)c3ccccc23)ccc1F)N1CCN(C(=O)C2CC2)CC1 + CNC(C)C(=O)NC1CN(S(=O)(=O)c2cccc(S(=O)(=O)N3CCC4CCC(C(=O)NC(c5ccccc5)c5ccccc5)N4C(=O)C(NC(=O)C(C)NC)C3)c2)CCC2CCC(C(=O)NC(c3ccccc3)c3ccccc3)N2C1=O : 111

Consider now this further compound.
QUERY: Consider the compound C=C(F)C(=O)N1CCN(c2nc(OCC3CCCN3C)nc3c2CCN(c2cccc4cccc(Cl)c24)C3)CC1CC#N (centres undefined) + CNC(C)C(=O)NC1CN(S(=O)(=O)c2cccc(S(=O)(=O)N3CCC4CCC(C(=O)NC(c5ccccc5)c5ccccc5)N4C(=O)C(NC(=O)C(C)NC)C3)c2)CCC2CCC(C(=O)NC(c3ccccc3)c3ccccc3)N2C1=O and give its recorded viability, T/C.
RESULT: 117

----------
tested on: 186277-243-T-J2-PDC complex spheroid growth, % test/control; assay: Anticancer human tumor 186277-243-T-J2-PDC cell line growth inhibition [Asc]; conditions: curve of first compound; second compound 1 µM;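 further: spheroids exposed to agents for 7 days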
pIC50: −log10 of the molar value.
MEASURE_NAME: pIC50

Field: example entries. Status: answers known.
C#Cc1c(F)ccc2cc(O)cc(-c3ncc4c(N5CC6CCC(C5)N6)nc(OCC56CCCN5CC(F)C6)nc4c3F)c12 (configuration not stated) + CNC(C)C(=O)NC1CN(S(=O)(=O)c2cccc(S(=O)(=O)N3CCC4CCC(C(=O)NC(c5ccccc5)c5ccccc5)N4C(=O)C(NC(=O)C(C)NC)C3)c2)CCC2CCC(C(=O)NC(c3ccccc3)c3ccccc3)N2C1=O : 6.64
COc1c(OCCCN2CCOCC2)ccc2c3n(c(=NC(=O)c4cnc(N)nc4)nc12)CCN3 + Cc1c(S(C)(=O)=O)c(-c2cc(F)cc(N3CCN(c4ccc(NS(=O)(=O)c5ccc(NC(CCN6CCC(C(=O)OCCCP(=O)(O)O)CC6)CSc6ccccc6)c(S(=O)(=O)C(F)(F)F)c5)cc4)CC3)c2)c(-c2ccc(Cl)cc2)n1C(C)C : 7.47
C=CC(=O)N1CCN(c2nc(=O)n(-c3c(C)ccnc3C(C)C)c3nc(-c4c(O)cccc4F)c(F)cc23)C(C)C1 (configuration not stated) + CNC(C)C(=O)NC1CN(S(=O)(=O)c2cccc(S(=O)(=O)N3CCC4CCC(C(=O)NC(c5ccccc5)c5ccccc5)N4C(=O)C(NC(=O)C(C)NC)C3)c2)CCC2CCC(C(=O)NC(c3ccccc3)c3ccccc3)N2C1=O : < 5.00
Cc1nc(N2CCC3(CC2)COC(C)C3N)c(CO)nc1Sc1ccnc(N)c1Cl (configuration not stated) + Cc1c(S(C)(=O)=O)c(-c2cc(F)cc(N3CCN(c4ccc(NS(=O)(=O)c5ccc(NC(CCN6CCC(C(=O)OCCCP(=O)(O)O)CC6)CSc6ccccc6)c(S(=O)(=O)C(F)(F)F)c5)cc4)CC3)c2)c(-c2ccc(Cl)cc2)n1C(C)C : < 5.52
NC1CCC(NC2CC2c2ccccc2)CC1 (configuration not stated) + CNC(C)C(=O)NC1CN(S(=O)(=O)c2cccc(S(=O)(=O)N3CCC4CCC(C(=O)NC(c5ccccc5)c5ccccc5)N4C(=O)C(NC(=O)C(C)NC)C3)c2)CCC2CCC(C(=O)NC(c3ccccc3)c3ccccc3)N2C1=O : < 7.00

The following compounds each have a reported value; give each one's pIC50.
1. Cn1ncnc1[C@H]1c2n[nH]c(=O)c3cc(F)cc(c23)N[C@@H]1c1ccc(F)cc1 + CNC(C)C(=O)NC1CN(S(=O)(=O)c2cccc(S(=O)(=O)N3CCC4CCC(C(=O)NC(c5ccccc5)c5ccccc5)N4C(=O)C(NC(=O)C(C)NC)C3)c2)CCC2CCC(C(=O)NC(c3ccccc3)c3ccccc3)N2C1=O
2. Cc1nc(N2CCC3(CC2)COC(C)C3N)c(CO)nc1Sc1ccnc(N)c1Cl (configuration not stated) + CNC(C)C(=O)NC1CN(S(=O)(=O)c2cccc(S(=O)(=O)N3CCC4CCC(C(=O)NC(c5ccccc5)c5ccccc5)N4C(=O)C(NC(=O)C(C)NC)C3)c2)CCC2CCC(C(=O)NC(c3ccccc3)c3ccccc3)N2C1=O

RESULT:
< 7.00
< 5.52

----------
test system: 186277-243-T-J2-PDC complex spheroid growth, % test/control; assay: Anticancer human tumor 186277-243-T-J2-PDC cell line growth inhibition [Asc]; settings: curve of first compound; second compound 0.1 µM;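 further: spheroids exposed to agents for 7 days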
pIC50: −log10 of the molar value.
MEASURE_NAME: pIC50

Field: example entries. Status: answers known.
Cn1ncnc1[C@H]1c2n[nH]c(=O)c3cc(F)cc(c23)N[C@@H]1c1ccc(F)cc1 + Cc1c(S(C)(=O)=O)c(-c2cc(F)cc(N3CCN(c4ccc(NS(=O)(=O)c5ccc(NC(CCN6CCC(C(=O)OCCCP(=O)(O)O)CC6)CSc6ccccc6)c(S(=O)(=O)C(F)(F)F)c5)cc4)CC3)c2)c(-c2ccc(Cl)cc2)n1C(C)C : < 7.00
Cc1nc(N2CCC3(CC2)COC(C)C3N)c(CO)nc1Sc1ccnc(N)c1Cl (stereo not drawn) + CNC(C)C(=O)NC1CN(S(=O)(=O)c2cccc(S(=O)(=O)N3CCC4CCC(C(=O)NC(c5ccccc5)c5ccccc5)N4C(=O)C(NC(=O)C(C)NC)C3)c2)CCC2CCC(C(=O)NC(c3ccccc3)c3ccccc3)N2C1=O : < 5.52

Consider now this further molecule.
QUERY: Consider the molecule Cc1nc(N2CCC3(CC2)COC(C)C3N)c(CO)nc1Sc1ccnc(N)c1Cl (stereo not drawn) + Cc1c(S(C)(=O)=O)c(-c2cc(F)cc(N3CCN(c4ccc(NS(=O)(=O)c5ccc(NC(CCN6CCC(C(=O)OCCCP(=O)(O)O)CC6)CSc6ccccc6)c(S(=O)(=O)C(F)(F)F)c5)cc4)CC3)c2)c(-c2ccc(Cl)cc2)n1C(C)C and give its recorded pIC50.
RESULT: < 5.52

----------
test system: 186277-243-T-J2-PDC complex spheroid growth, % test/control; experiment: Anticancer human tumor 186277-243-T-J2-PDC cell line growth inhibition [Asc]; conditions: second compound 0.1 µM; first compound 0.0316 µM; stronger effect = lower value;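 further: spheroids exposed to agents for 7 days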;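 on viability, T/C: 100% = DMSO vehicle control wells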
Provide the reported viability, T/C of each item.
Numbers only, in %.

C=CC(=O)N1CCN(c2nc(=O)n(-c3c(C)ccnc3C(C)C)c3nc(-c4c(O)cccc4F)c(F)cc23)C(C)C1 (stereo not given) + CNC(C)C(=O)NC1CN(S(=O)(=O)c2cccc(S(=O)(=O)N3CCC4CCC(C(=O)NC(c5ccccc5)c5ccccc5)N4C(=O)C(NC(=O)C(C)NC)C3)c2)CCC2CCC(C(=O)NC(c3ccccc3)c3ccccc3)N2C1=O : 124

The following compounds each have a reported value; give each one's viability, T/C.
1. Cn1ncnc1[C@H]1c2n[nH]c(=O)c3cc(F)cc(c23)N[C@@H]1c1ccc(F)cc1 + CNC(C)C(=O)NC1CN(S(=O)(=O)c2cccc(S(=O)(=O)N3CCC4CCC(C(=O)NC(c5ccccc5)c5ccccc5)N4C(=O)C(NC(=O)C(C)NC)C3)c2)CCC2CCC(C(=O)NC(c3ccccc3)c3ccccc3)N2C1=O
2. C=CC(=O)N1CCN(c2nc(=O)n(-c3c(C)ccnc3C(C)C)c3nc(-c4c(O)cccc4F)c(F)cc23)C(C)C1 (stereo not given) + Cc1c(S(C)(=O)=O)c(-c2cc(F)cc(N3CCN(c4ccc(NS(=O)(=O)c5ccc(NC(CCN6CCC(C(=O)OCCCP(=O)(O)O)CC6)CSc6ccccc6)c(S(=O)(=O)C(F)(F)F)c5)cc4)CC3)c2)c(-c2ccc(Cl)cc2)n1C(C)C
3. O=C(c1cc(Cc2n[nH]c(=O)c3ccccc23)ccc1F)N1CCN(C(=O)C2CC2)CC1 + CNC(C)C(=O)NC1CN(S(=O)(=O)c2cccc(S(=O)(=O)N3CCC4CCC(C(=O)NC(c5ccccc5)c5ccccc5)N4C(=O)C(NC(=O)C(C)NC)C3)c2)CCC2CCC(C(=O)NC(c3ccccc3)c3ccccc3)N2C1=O
4. CCN1CCN(Cc2ccc(Nc3ncc(F)c(-c4cc(F)c5nc(C)n(C(C)C)c5c4)n3)nc2)CC1 + CNC(C)C(=O)NC1CN(S(=O)(=O)c2cccc(S(=O)(=O)N3CCC4CCC(C(=O)NC(c5ccccc5)c5ccccc5)N4C(=O)C(NC(=O)C(C)NC)C3)c2)CCC2CCC(C(=O)NC(c3ccccc3)c3ccccc3)N2C1=O
5. CNC(C)C(=O)NC1CN(S(=O)(=O)c2cccc(S(=O)(=O)N3CCC4CCC(C(=O)NC(c5ccccc5)c5ccccc5)N4C(=O)C(NC(=O)C(C)NC)C3)c2)CCC2CCC(C(=O)NC(c3ccccc3)c3ccccc3)N2C1=O (stereo not given) + Cc1c(S(C)(=O)=O)c(-c2cc(F)cc(N3CCN(c4ccc(NS(=O)(=O)c5ccc(NC(CCN6CCC(C(=O)OCCCP(=O)(O)O)CC6)CSc6ccccc6)c(S(=O)(=O)C(F)(F)F)c5)cc4)CC3)c2)c(-c2ccc(Cl)cc2)n1C(C)C
6. COc1c(OCCCN2CCOCC2)ccc2c3n(c(=NC(=O)c4cnc(N)nc4)nc12)CCN3 + CNC(C)C(=O)NC1CN(S(=O)(=O)c2cccc(S(=O)(=O)N3CCC4CCC(C(=O)NC(c5ccccc5)c5ccccc5)N4C(=O)C(NC(=O)C(C)NC)C3)c2)CCC2CCC(C(=O)NC(c3ccccc3)c3ccccc3)N2C1=O

RESULT:
146
120
111
118
111
68.3

The following compounds each have a reported value; give each one's viability, T/C.
1. CCN1CCN(Cc2ccc(Nc3ncc(F)c(-c4cc(F)c5nc(C)n(C(C)C)c5c4)n3)nc2)CC1 + Cc1c(S(C)(=O)=O)c(-c2cc(F)cc(N3CCN(c4ccc(NS(=O)(=O)c5ccc(NC(CCN6CCC(C(=O)OCCCP(=O)(O)O)CC6)CSc6ccccc6)c(S(=O)(=O)C(F)(F)F)c5)cc4)CC3)c2)c(-c2ccc(Cl)cc2)n1C(C)C
2. C#Cc1c(F)ccc2cc(O)cc(-c3ncc4c(N5CC6CCC(C5)N6)nc(OCC56CCCN5CC(F)C6)nc4c3F)c12 (stereo not given) + Cc1c(S(C)(=O)=O)c(-c2cc(F)cc(N3CCN(c4ccc(NS(=O)(=O)c5ccc(NC(CCN6CCC(C(=O)OCCCP(=O)(O)O)CC6)CSc6ccccc6)c(S(=O)(=O)C(F)(F)F)c5)cc4)CC3)c2)c(-c2ccc(Cl)cc2)n1C(C)C
3. O=C(c1cc(Cc2n[nH]c(=O)c3ccccc23)ccc1F)N1CCN(C(=O)C2CC2)CC1 + Cc1c(S(C)(=O)=O)c(-c2cc(F)cc(N3CCN(c4ccc(NS(=O)(=O)c5ccc(NC(CCN6CCC(C(=O)OCCCP(=O)(O)O)CC6)CSc6ccccc6)c(S(=O)(=O)C(F)(F)F)c5)cc4)CC3)c2)c(-c2ccc(Cl)cc2)n1C(C)C

RESULT:
[103, 91.5, 96.9]
